TARGET_ENTITY: T1, human chemokine (C-C motif) receptor 8 (CCR8) protein (human, UniProt P51685 1-355)
T1 construct: whole, on cells; also called human CCR8
TEST_NAME: cell binding, CCR8-expressing U2OS cells, curve fit
# Bottom per record follows

Field: example entries. Status: answers known.
BINDER	READOUT_TYPE	RESULT
88-H2L2 (antibody, V domains shown, Humanized 88D2C6) VH: EVQLVESGGGLVQPGGSLKLSCAASGFTFNPNAMNWVRQASGKGLEWVGRIRSKSNNYATYYADSVKDRFTISRDDSKNTAYLQMNNLKTEDTAVYYCVRGKDDGYRHYAMDYWGQGTTVTVSS VL: DIVMTQSPLSLPVTPGEPASISCRSSKSLLHSNANTYLYWFLQKPGQSPQLLIYRMSNLASGVPDRFSGSGSGTAFTLKISRVEAEDVGVYYCMQHLEYPFTFGGGTKVEIK	Bottom	2760
88-xi (antibody, V domains shown, also called 88D2C6; chimeric 88D2C6) VH: EVQLVETGGGLVQPKGSLKLSCAASGFTFNPNAMNWVRQAPGKGLEWVARIRSKSNNYATYYADSVKDRFTISRDDSQSMLYLQMNNLKTEDTAMYYCVRGKDDGYRHYAMDYWGQGTSVTVSS VL: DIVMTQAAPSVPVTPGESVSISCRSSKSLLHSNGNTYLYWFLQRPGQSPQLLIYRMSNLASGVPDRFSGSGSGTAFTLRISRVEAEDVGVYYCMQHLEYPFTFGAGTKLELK	Bottom	1030
88-H1L3 (antibody, V domains shown, Humanized 88D2C6) VH: EVQLVESGGGLVQPGGSLKLSCAASGFTFNPNAMNWVRQASGKGLEWVGRIRSKSNNYATYYADSVKDRFTISRDDSKNTAYLQMNSLKTEDTAVYYCTRGKDDGYRHYAMDYWGQGTTVTVSS VL: DIVMTQAPLSLPVTPGEPVSISCRSSKSLLHSNANTYLYWFLQKPGQSPQLLIYRMSNLASGVPDRFSGSGSGTAFTLKISRVEAEDVGVYYCMQHLEYPFTFGGGTKLEIK	Bottom	1540
88-H3L3 (antibody, V domains shown, Humanized 88D2C6) VH: EVQLVESGGGLVQPGGSLKLSCAASGFTFNPNAMNWVRQASGKGLEWVARIRSKSNNYATYYADSVKDRFTISRDDSKNTLYLQMNNLKTEDTAVYYCVRGKDDGYRHYAMDYWGQGTTVTVSS VL: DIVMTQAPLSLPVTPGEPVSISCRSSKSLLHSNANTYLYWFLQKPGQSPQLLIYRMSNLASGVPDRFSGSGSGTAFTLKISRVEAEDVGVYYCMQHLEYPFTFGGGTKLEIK	Bottom	1620
88-H3L2 (antibody, V domains shown, Humanized 88D2C6) VH: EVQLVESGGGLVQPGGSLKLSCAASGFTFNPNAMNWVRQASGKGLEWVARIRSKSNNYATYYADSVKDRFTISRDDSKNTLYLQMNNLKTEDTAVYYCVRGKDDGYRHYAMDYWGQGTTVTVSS VL: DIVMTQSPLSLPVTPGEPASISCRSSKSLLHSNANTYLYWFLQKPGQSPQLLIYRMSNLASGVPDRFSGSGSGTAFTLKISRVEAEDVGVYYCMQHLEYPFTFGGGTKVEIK	Bottom	2830
88-H1L2 (antibody, V domains shown, Humanized 88D2C6) VH: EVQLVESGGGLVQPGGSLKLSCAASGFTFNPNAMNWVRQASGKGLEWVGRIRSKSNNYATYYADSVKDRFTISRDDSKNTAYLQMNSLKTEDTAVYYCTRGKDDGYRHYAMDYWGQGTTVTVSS VL: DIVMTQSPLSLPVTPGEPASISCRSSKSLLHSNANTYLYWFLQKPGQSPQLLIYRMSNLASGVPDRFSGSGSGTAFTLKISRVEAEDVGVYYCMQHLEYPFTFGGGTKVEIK	Bottom	2110

Task: GET /values?readout=Bottom&item= 88-H2L3 (antibody, V domains shown, Humanized 88D2C6) VH: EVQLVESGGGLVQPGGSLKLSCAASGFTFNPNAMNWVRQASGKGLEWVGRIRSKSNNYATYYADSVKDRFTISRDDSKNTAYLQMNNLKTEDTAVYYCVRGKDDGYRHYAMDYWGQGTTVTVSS VL: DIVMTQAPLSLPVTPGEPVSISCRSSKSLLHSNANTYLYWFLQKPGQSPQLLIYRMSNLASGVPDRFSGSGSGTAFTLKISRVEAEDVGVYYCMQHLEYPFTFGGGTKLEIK
Output: 1530
